Listing of recorded GI50 by entry.
Test system: SF-539
assay_details: NCI tumour cell line growth inhibition, 48 h
The source made the active and inactive calls. No stated cut-off is given here; in the data, active = GI50 up to about 1.1 µM and inactive = higher.

Consider the worked cases shown below.
Task: Notebook entry, SF-539 assay: GI50 of COc1ccc(-c2nc3c(nc2-c2ccc(OC)cc2)N(C)S(=O)(=O)N=C3N)cc1 = ?
Output: 18.3 µM (inactive)

Task: For SF-539, provide GI50 of COC(=O)CCC(=O)CC(=O)C(=O)Nc1c(Cl)cc([N+](=O)[O-])cc1Cl please.
Output: > 100 µM (inactive)

New cases:
Task: Record O=C1Nc2ccccc2/C1=N/Nc1nc(-c2ccc([N+](=O)[O-])cc2)cs1 : what is its GI50 with SF-539?
Output: 17.1 µM (inactive)

Task: Quick check: GI50 on SF-539, item CCOC(=O)C(Cc1c2ccccc2cc2ccccc12)(NC(C)=O)C(=O)OCC ?
Output: > 64.6 µM (inactive)

Task: Give SF-539 GI50 for Cc1ccc(S(=O)(=O)C2CC2(Cl)Cl)cc1 (stereo not drawn)
Output: 31.4 µM (inactive)

Task: Form entry - test system: SF-539; read-out: GI50; compound: CC(Oc1ccccc1Cl)C(=O)NN1C(=O)CC(=O)N(c2ccccc2)C1=S (stereo not drawn)
Output: 66.7 µM (inactive)
